experiment: Selectivity index, ratio of IC50 for MRC5 cells to IC50 for chloroquine-sensitive NF54 isolated Plasmodium falciparum 3D7; type: toxicity, cell-based; conditions: human; read-out: Ratio IC50
Examples of compounds with documented selectivity ratio follow.
readout-name: selectivity ratio

compound=NC1=CC(=O)c2ccccc2C1=O readout_name="selectivity ratio" measured=63
compound=O=C1C(Cl)=C(Cl)C2(CO2)C(Cl)=C1Cl readout_name="selectivity ratio" measured=93
compound=C=CCOC1=CC(=O)c2ccccc2C1=O readout_name="selectivity ratio" measured=12
compound=O=C1C(Cl)=C(Cl)C(=O)c2ccccc21 readout_name="selectivity ratio" measured=7.2
compound="O=C1C(Cl)=C(Cl)C2(CO2)c2ccccc21 (centres undefined)" readout_name="selectivity ratio" measured=15
compound=COC1=CC(=O)c2ccccc2C1=O readout_name="selectivity ratio" measured="< 0.1"
compound="COC1=CC(=O)c2ccccc2C12CO2 (centres undefined)" readout_name="selectivity ratio" measured="< 2.3"
compound="CC1(C)CC2=C(O1)C1(CO1)c1ccccc1C2=O (centres undefined)" readout_name="selectivity ratio" measured="< 1.1"
compound="O=C1C=C(Nc2ccccc2)C2(CO2)c2ccccc21 (centres undefined)" readout_name="selectivity ratio" measured="< 2.7"
compound="CC1(C)CCC2=C(O1)C1(CO1)c1ccccc1C2=O (centres undefined)" readout_name="selectivity ratio" measured="> 27"
compound=O=C1C(Cl)=C(Cl)C(=O)C(Cl)=C1Cl readout_name="selectivity ratio" measured="> 4.4"
compound=CC1(C)CC2=C(O1)C(=O)c1ccccc1C2=O readout_name="selectivity ratio" measured="< 1.1"
compound="C=CCOC1=CC(=O)c2ccccc2C12CO2 (centres undefined)" readout_name="selectivity ratio" measured="< 0.53"
compound=O=C1C=C(Nc2ccccc2)C(=O)c2ccccc21 readout_name="selectivity ratio" measured="> 15"
